# Test system: P. falciparum 3D7 growth, pLDH absorbance
# assayName: blood-stage malaria parasite growth potency – strain 3D7, dose response (AID 2305)
propertyName: pIC50
Reminder that pIC50 is minus the log10 of a molar concentration.

Cc1ccc(CNC(=O)[C@H](CC(C)C)Nc2cc(C)nc(NCC3CCCCC3)n2)cc1: 6.03

Now examine the next entry.
Tell me the measured pIC50 of N=c1ccn(CC(=NO)c2ccc(Cl)c(Cl)c2)cc1 , please.
6.03

* * *

# System: P. falciparum 3D7 growth, pLDH absorbance
# assayName: blood-stage malaria parasite growth potency – strain 3D7, dose response (AID 2305)
propertyName: pIC50
Reminder that pIC50 is minus the log10 of a molar concentration.

O=C(Nc1ccc(Cl)cc1)Nc1cccc(-c2cccc(-c3nc4ccc(F)cc4[nH]3)c2)c1: 6.66
O=C(NCCCCCN1CCC(c2c[nH]c3ccccc23)CC1)Nc1ccc(Br)cc1: 6.04
CN(C)c1ccc(C=C2SC(=N)N(c3nccs3)C2=O)cc1: 6.34
Cc1ccc(-n2c(=O)c3cccnc3n2CC(=O)Nc2cccc(C)c2C)cc1: 6.07

Tell me the measured pIC50 of O=C(Cc1ccc(NC(=O)c2ccc(O)c(-c3ccc(Cl)c(Cl)c3)c2)cc1)NCc1cccc(C(F)(F)F)c1 , please.
6.06

Moving on to the next compound: O=C(NCCCCN1CC[C@@H]2c3cccc(O)c3CC[C@H]21)c1ccc(-c2ccccc2)cc1
5.86

Moving on to the next compound: Cc1ccc(NC(=O)N2CCCN(CCCCCNC(=O)/C=C/c3ccc(Cl)c(Cl)c3)CC2)cc1C
6.11

Moving on to the next compound: Cc1[nH]c(C)c(-c2ccc(OCc3ccc(F)cc3)nc2)c(=O)c1Br
6.70

Moving on to the next compound: CC(=O)c1ccccc1C(=O)N1CCOc2ccc(C(O)C(c3ccccc3)c3ccccc3)cc2C1 (centres undefined)
6.05
